System: MS2 coat protein
Test: apparent KD of MS2 coat protein; higher = weaker reporter binding
Conditions: Eterna round: R107; input ligand: none
Output schema: class label derived from apparent KD of MS2 coat protein. Mapping: Low: < 20 nM; Medium: ≥ 20 nM and < 30 nM; High: ≥ 30 nM

Illustrative cases are given below, each with its answer.
sequence.record | assigned.category
CACAUGAGGAUCACCCAUGUCUGAACUGAAGGAGCGCUAAACAAGGCAGGUAGGUCGCGGAAUUUUGUGUGCAUAUGCACAUGGG [9.O] | Medium
GGACUAACCAGAAGGAGCGACACGCAGAAACUGCAAUUUCCUCUACACGAGGAUCACCCGUGUCAGGUAGGUCGCUGGUUAGUCG | High
AGACAUGAGGAUCACCCAUGUAGUACGGAUACCAGAUCCAGAUGUAUCCCUUGGCAGCUGUGGUACAGCGUUACAUCGCUCGUAG [Exclusion - Theophylline A (Freestyle 21)] | Low
GGACUAACCAGAAGGAGCGACACGCAGAAACUGCUAAAUCCUCCGCACGAGGAUCACCCGUGUCAGGUAGGUCGCUGGUUAGUCG [ArgBX 28] | High
CUGGACAUGAGGAUCACCCAUGUAAAUCCUCGAGGACCGGUACGGCCGCCACUCGAACGAGUGGCGCGCGAGUGCGCACUCGCGC [aKa] | High
GUUAAUAGAAAACUAUUAACAGUGGGUGAACGAGGACCGGUACGGCCGCCACUCGGACAUGAGGAUCACCCAUGUCCAUGUGAAA [AstrosExyTryA#5] | Low
GGUUGGUGUAGAGAUAUAUUGAUUACUGAAGGAGCGGGAAUAAACCCAGGUAGGUCGCAGAGAUCCACAUGAGGAUCACCCAUGU [!0.O] | High
GGACUAACCAGAAGGAGCGGCACGCAGAAACUGCUAAUUCCUCCGCACGAGGAUCACCCGUGUCAGGUAGGUCGCUGGUUAGUCG [ArgBX 28] | Low
CCUAUCCAGUCGGCCGCCACUGACCAUUUGGAACAGUGGGUGAAUACAUGAGGAUCACCCAUGUACAGGACCGGGACUGUAUAGG [Ex Tryptophan B 21] | Low
GGAUCCAUCCGAAGGAGCGUCGGAAAUGGGUAAACAUGAGGAUCACCCAUGUAAAGGGAACGGCAGGUAGGUCGCGGAUGGAUCC [#25 Same State - Arginine B] | High

Now look at this one.
stdin: Any idea which band CACAUGAGGAUCACCCAUGUCUGAACUGAAGGAGCGCUAAAUAAGGCAGGUAGGUCGCGGAAUUUUGUGUGCAUAUGCACAUGGG [9.P] is in?
stdout: Medium

* * *

Tested on: MS2 coat protein
Assay: apparent KD of MS2 coat protein; designed switch direction (-1 OFF switch, 1 ON switch): -1; higher = weaker reporter binding
Details: input ligand: none
I would appreciate it if you labelled entries 1 when apparent KD of MS2 coat protein is 30 nM or higher, otherwise 0.

// known answers, use as guide
sequence.record | assayed.system | assigned.category
GGAUAAAACUGAGGAUAUGAGGAGAGAGAGAGAUCAGAAGGCAGACAUGAGGAUCACCCAUGUGAGUUCUCGAUAAGAAACACG [Prohibition 56 - Jieux - Exclusion NG 1] (Eterna round: R96, puzzle: Exclusion NG 1) | MS2 coat protein | 1
UGAGUGCUGCGAGGAUAUACAUGAGGAUCACCCAUGUAAACCUGUGAGGCUUUGCCUCACAGGAUGUAGAAGGCGCAGUACUCU [JL ENG2 1.16] (Eterna round: R96, puzzle: Exclusion NG 2) | MS2 coat protein | 0
GUCAUCGCAGGAUAUUAGAGUUUUUACAUGAGGAUCACCCAUGUUAAUUGGGUUAAUGUCUAAGAAGGGCGAUGAA [JR_EX5_Sub013] (Eterna round: R97, puzzle: Exclusion 5) | MS2 coat protein | 1

Now consider a different sequence.
stdin: State whether the measured apparent KD of MS2 coat protein reaches 30 nM, counting equality as reaching it, for AAGGGUGCUUUCAGAACGACAUGAGGAUCACCCAUGUAGACUGAGGAUAUCUACUUCUAAGGACGGGAGAAGGCAGUGUAAUGC [Ex NG3 #68] (Eterna round: R96, puzzle: Exclusion NG 3)
stdout: 0

* * *

Tested on: MS2 coat protein
Experiment: apparent KD of MS2 coat protein; designed switch direction (-1 OFF switch, 1 ON switch): 1; higher = weaker reporter binding
Settings: input ligand: none
assay.endpoint: apparent KD of MS2 coat protein (nM)
Your answer should be a plain number; it is taken to be in nM.

Consider the worked cases shown below.
sequence.record | value.reported
GCUACCAAAUAAGCCAACAUGAGGAUCACCCAUGUAUGUUGGUAGGAUAUCGUAUGCAAAGCAUACGAGAAGGGCUAAGGUAGC [Mat - Same State NG 3 - JL Mod - D80] (Eterna round: R96, puzzle: Same State NG 3) | 52.5
GGCCUGAGUGAAGGAUAUGCUACCGUUUCGGUAGCAGAAGGUCAUCACAUGAGGAUGACCCAUGUUUACGCGAACACGCGCGCC (Eterna round: R96, puzzle: Same State NG 1) | 28.2
GGAAGGAGGUCAGGAUAUGAAUGGAUGGGACAUGAGGAUCACCCAUGUAAUAGAAGAAAUCUACAUUAGAAGGGACAAGGAAGG [AK SSNG2-V2-5] (Eterna round: R96, puzzle: Same State NG 2) | 130
GCUCGCACGAUGACCGACAUGAGGAUCACCCAUGUGUGUCGGUAGGAUAUCUAUAUUAAGGAUUUAGAGAAGGGCCCAGCGAGC [SameState NG3 #20] (Eterna round: R96, puzzle: Same State NG 3) | 69.3
GGUCCAUCAUGAGGAUAUGGCACCUUAUUGGUGCCAGAAGGCAUGUAAAUUAUAAUAAACAUGAGGAUCACCCAUGUAUGGACC [Eli NG1ss - 96] (Eterna round: R96, puzzle: Same State NG 1) | 137
GUGGUGUAGAUACAGGAUAUGUUGCUCGUAACAUGAGGAUCACCCAUGUAUCUAUGAGAAUAAAUGCAGAAGGGUGCACACCACU [Mat - Same State 2 - Mod of UCT - D74] (Eterna round: R96, puzzle: Same State 2) | 489
UUACUCAUGUAAGGAUAUGCAGCCGUUUCGGCUGCAGAAGGUACUAUAAUACAUGAGGAUCACCCAUGUCUAUAAAAUAAAGAC [Mat - Same State NG 1 - JL mod - D81] (Eterna round: R96, puzzle: Same State NG 1) | 32.5
GGUAAGAAUUAAGGAUAUUGAAUACAUAUGUUUAACAUGAGGAUCACCCAUGUGGGUUGCGGUGUCGAGAAGGUAAAAUAAUAG [Mat - same State NG 2 - JL mod - D101] (Eterna round: R96, puzzle: Same State NG 2) | 311

# context switch: different sequence, same apparent KD of MS2 coat protein
stdin: Reported apparent KD of MS2 coat protein for CACGUCUAGGUAGGAUAUGAGGUGCCACAGGGAAAAGCCUAUGGACAUGAGGAUCACCCAUGUCCUCAGAAGGGCCAGACGUGA [Inzala] (Eterna round: R96, puzzle: Same State NG 2) : what is it?
stdout: 52.4

* * *

System: K4 kissing-loop RNA reporter;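 also: bound reporter read as fluorescence of individual clusters on recovered sequencing chips by microscopy, with normalized cluster intensities fitted with a binding model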
Assay: apparent KD of K4 kissing-loop reporter; higher = weaker reporter binding
Details: Eterna round: R107; input ligand: tryptophan 2.4 mM
# apparent KD of K4 kissing-loop reporter per entry

Would you please look over these solved cases?
sequence.record | apparent KD of K4 kissing-loop reporter
AACUCUCAGACACUUGAGUGAUGUUCAGGCCGAGGACCGGUACGGCCGCCACUCGGGUCUGAGAGAGGUUAUCAAAGAUAGCCAA [Omei KL Tryp A SS A v5] | 273 nM
UGUCAUUGGUCGGCCGCCACUUCAUGUAGAGUGAUGUUUUGUAGGACGGAUCGAAAGAUCUGUCGAAGGACCGGGACCGAUGACU [FiskerMod 15 - Jieux - Same State - Tryptophan B] | 1040 nM
GAAUAAUAAGUAGCAGUGAUGUUGCUACUACGAGGACCGGUACGGCCGCCACUCGAAUACGAGUGGACACUGCUACUACCACUCG [(H1)-(H2)-(Trp1)-(Trp2)-(T)'-(H)'-(T)''_Design8] | 170 nM
CGUGAAUGUCGUCAGUCAUCGGUCCAUGCACGAGGACCGGUACGGCCGCCACUCGAGCGUGGCAGUGAUGUUGCCAGCGCACUAA [KL-XTryp-A13] | 315 nM
GGGUAUUACGGAGGAUAUGCACUGAGGAGGAGAAUAUAGUGAUGUUAUAUAAGAGGAAGGAGAAGAGUAGAAGGCCGUGGUAUUG [SSFMNB.H] | 190 nM

Next sequence, please.
stdin: Hi! What's the reported apparent KD of K4 kissing-loop reporter for ACCGCAUUGGGCUGAUCCCAAUGCGCUGGUCGAGGACCGGUACGGCCGCCACUCGUCCAGUGAUGUUGGACUAGGGCAACUGAAG [Veraceer] on K4 kissing-loop RNA reporter?
stdout: 83.3 nM
